Test system: Vero cells
assay: cells
assay.setup: Chlorocebus sabaeus, read-out: VERO IC50
measured.property: pIC50
Remember the convention: pIC50 equals -log10 of concentration in molar.

> print(dat)
                                   molecule  assay.value
1  NC(=O)c1sc(N2CCOCC2)cc1OCCc1ccccc1F [Compound 38]         4.08

Let's switch to this molecule now.
I have this molecule here, O=C(NO)c1sc(N2CCOCC2)cc1OCCc1ccccc1 [Compound 16] , and I need its recorded pIC50.
4.24

###

assay: physchem
Reported chromatographic logD values follow for various compounds
The reply should be a number, written without any unit.

Some solved entries appear below for comparison.
> print(dat)
                               compound     measured.property  assay.value
1  COc1ccccc1CCOc1cc(N2CCOCC2)sc1C(N)=O  chromatographic logD         1.95
2    NC(=O)c1sc(N2CCOCC2)cc1OCCN1CCOCC1  chromatographic logD        0.189
3   NC(=O)c1nc(N2CCOCC2)ccc1OCCc1ccccc1  chromatographic logD         1.61

I have this compound here, NC(=O)c1sc(N2CCOCC2)cc1OCC(O)c1ccccc1 (centres unmarked) , and I need its recorded chromatographic logD.
1.12

I have this compound here, `NC(=O)c1sc(-n2nccn2)cc1OCCc1ccccc1` , and I need its recorded chromatographic logD.
2.41

I have this compound here, `NC(=O)c1sc(N2CCOCC2)cc1OCCc1ccc(OC(F)(F)F)cc1` , and I need its recorded chromatographic logD.
2.68

I have this compound here, `NC(=O)c1sc(N2CCOCC2)cc1OCCc1ccc(F)cc1` , and I need its recorded chromatographic logD.
1.85

I have this compound here, NC(=O)c1cc(N2CCOCC2)ccc1OCCc1ccccc1 [Compound 55, 5-Morpholino-2-(2-phenylethoxy)benzamide] , and I need its recorded chromatographic logD.
1.9

I have this compound here, `NC(=O)c1sc(-n2cnc3ccccc32)cc1OCCc1ccccc1` , and I need its recorded chromatographic logD.
2.39

I have this compound here, `CC(=O)c1sc(N2CCOCC2)cc1OCCc1ccccc1` , and I need its recorded chromatographic logD.
2.78

I have this compound here, NC(=O)c1sc(N2CCOCC2)cc1OC1CCCc2ccccc21 (centres unmarked) , and I need its recorded chromatographic logD.
2.22

I have this compound here, `NC(=O)c1sc(-c2ccncc2)cc1OCCc1ccccc1` , and I need its recorded chromatographic logD.
1.9

I have this compound here, `CC1(COc2cc(N3CCOCC3)sc2C(N)=O)COC1` , and I need its recorded chromatographic logD.
0.707

I have this compound here, `NC(=O)c1sc(CN2CCOCC2)cc1OCCc1ccccc1` , and I need its recorded chromatographic logD.
1.71

Origin of values: paper PMC6089501
